SYSTEM_UNDER_TEST: PI3Kδ (Homo sapiens (Human), UniProt O00329)
Sequence (O00329 whole entry): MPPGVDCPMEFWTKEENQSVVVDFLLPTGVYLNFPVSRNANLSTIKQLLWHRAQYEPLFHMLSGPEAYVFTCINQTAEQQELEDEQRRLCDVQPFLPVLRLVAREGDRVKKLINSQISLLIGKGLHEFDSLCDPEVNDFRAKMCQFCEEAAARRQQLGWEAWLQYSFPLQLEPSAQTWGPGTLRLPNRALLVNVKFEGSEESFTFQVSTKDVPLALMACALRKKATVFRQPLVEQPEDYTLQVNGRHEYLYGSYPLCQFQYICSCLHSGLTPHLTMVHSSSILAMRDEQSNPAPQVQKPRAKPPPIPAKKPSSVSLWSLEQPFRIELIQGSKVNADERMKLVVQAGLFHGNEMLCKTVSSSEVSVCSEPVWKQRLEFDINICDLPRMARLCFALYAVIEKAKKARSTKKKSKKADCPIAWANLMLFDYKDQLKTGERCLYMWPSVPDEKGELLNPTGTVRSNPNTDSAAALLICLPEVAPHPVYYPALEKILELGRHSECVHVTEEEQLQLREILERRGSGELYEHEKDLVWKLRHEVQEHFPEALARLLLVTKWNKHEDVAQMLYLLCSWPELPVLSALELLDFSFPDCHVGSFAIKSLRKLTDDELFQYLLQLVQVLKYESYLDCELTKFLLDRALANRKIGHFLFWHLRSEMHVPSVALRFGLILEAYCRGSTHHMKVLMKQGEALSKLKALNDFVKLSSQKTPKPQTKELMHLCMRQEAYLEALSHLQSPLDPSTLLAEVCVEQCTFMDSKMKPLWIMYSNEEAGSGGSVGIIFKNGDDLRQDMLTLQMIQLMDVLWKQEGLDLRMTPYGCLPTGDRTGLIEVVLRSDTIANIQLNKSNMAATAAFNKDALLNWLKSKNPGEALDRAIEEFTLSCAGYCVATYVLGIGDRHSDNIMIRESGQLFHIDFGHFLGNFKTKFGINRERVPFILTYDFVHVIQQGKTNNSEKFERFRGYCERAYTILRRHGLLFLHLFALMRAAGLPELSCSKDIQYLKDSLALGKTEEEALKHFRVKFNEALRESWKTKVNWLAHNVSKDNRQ
Sequence (P27986 whole entry partner): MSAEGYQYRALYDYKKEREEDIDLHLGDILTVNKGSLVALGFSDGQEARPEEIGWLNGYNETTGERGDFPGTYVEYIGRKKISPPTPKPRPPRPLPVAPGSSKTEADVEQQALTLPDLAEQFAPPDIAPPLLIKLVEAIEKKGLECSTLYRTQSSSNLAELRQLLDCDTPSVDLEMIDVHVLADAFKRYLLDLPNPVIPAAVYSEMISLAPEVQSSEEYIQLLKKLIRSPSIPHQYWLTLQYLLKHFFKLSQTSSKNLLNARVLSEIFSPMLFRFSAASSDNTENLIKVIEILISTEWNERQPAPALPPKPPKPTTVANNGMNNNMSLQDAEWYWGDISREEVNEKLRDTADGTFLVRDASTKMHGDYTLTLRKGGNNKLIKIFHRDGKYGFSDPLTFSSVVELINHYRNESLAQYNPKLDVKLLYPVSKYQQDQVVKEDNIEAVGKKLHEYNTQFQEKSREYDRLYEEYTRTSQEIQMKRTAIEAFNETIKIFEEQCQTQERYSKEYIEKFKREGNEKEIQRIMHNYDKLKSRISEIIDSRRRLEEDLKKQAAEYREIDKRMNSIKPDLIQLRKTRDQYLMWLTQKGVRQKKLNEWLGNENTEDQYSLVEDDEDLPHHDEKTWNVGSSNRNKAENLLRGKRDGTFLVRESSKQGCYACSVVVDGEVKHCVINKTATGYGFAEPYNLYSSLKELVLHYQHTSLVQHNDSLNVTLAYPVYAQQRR
MEASUREMENT_PROTOCOL: Inhibition of PI3Kδ efficacy assay (ADP-Glo kinase assay)
Type: biochemical
MEASUREMENT_CONTEXT: Table 4; read-out: PI3Kδ inhibitory activity (IC50)
ASSAY_METRIC: IC50 (nM)
Provide the reading as a plain figure in nM.

Consider the worked cases shown below.
INSERT INTO results (compound, system_under_test, recorded_number) VALUES
  ('COc1ncc(-c2ccc3ncnc(C4CCN(C(=O)/C=C/C(C)=O)C4)c3c2)cc1NS(=O)(=O)c1ccc(F)cc1F (stereo not shown)', 'PI3Kδ (Homo sapiens (Human), UniProt O00329)', 3.33),
  ('COc1ncc(-c2ccc3ncnc(N4CCN(C(=O)/C=C/C(C)=O)C[C@@H]4C)c3c2)cc1NS(=O)(=O)c1ccc(F)cc1', 'PI3Kδ (Homo sapiens (Human), UniProt O00329)', 12.7),
  ('COc1ccc(Cl)c(S(=O)(=O)Nc2cc(-c3ccc4ncnc(N5CCN(C(=O)/C=C/C(C)=O)CC5)c4c3)cnc2OC)c1', 'PI3Kδ (Homo sapiens (Human), UniProt O00329)', 16.2);

[in] Bench note: what IC50 did COc1ncc(-c2ccc3ncnc(C4=CCN(C(=O)/C=C/C(C)=O)CC4)c3n2)cc1NS(=O)(=O)c1c(F)cccc1Cl show?
[out] 2.96

[in] What about COc1ncc(-c2ccc3ncnc(C4CCN(C(=O)/C=C/C(C)=O)CC4)c3n2)cc1NS(=O)(=O)c1sc(C)nc1C ?
[out] 4.7

[in] What about COc1ncc(-c2ccc3ncnc(C4=CCN(C(=O)/C=C/C(C)=O)CC4)c3c2)cc1NS(=O)(=O)c1sc(C)nc1C ?
[out] 12

[in] What about COc1ncc(-c2ccc3ncnc(N4CCN(C(=O)/C=C/C(C)=O)C[C@@H]4C)c3c2)cc1NS(=O)(=O)c1ccc(F)cc1Cl ?
[out] 17.1

[in] What about COc1ncc(-c2ccc3ncnc(N4CCN(C(=O)/C=C/C(C)=O)C[C@@H]4C)c3c2)cc1NS(=O)(=O)c1c(F)cc(F)cc1F ?
[out] 13.8

[in] What about COc1ncc(-c2ccc3ncnc(C4CCN(C(=O)/C=C/C(C)=O)CC4)c3c2)cc1NS(=O)(=O)c1c(F)cccc1Cl ?
[out] 15

[in] What about COc1ncc(-c2ccc3ncnc(N4CCN(C(=O)/C=C/C(C)=O)C[C@@H]4C)c3c2)cc1NS(=O)(=O)c1ccccc1F ?
[out] 15.5
